- studySystem: T1, cynomolgus monkey BCMA (cynomolgus monkey, UniProt A0A2K5UD97 1-53)
- T1 construct: Soluble analyte in SPR; construct not described; also called cyBCMA; Cyno BCMA
- T1 sequence (A0A2K5UD97 entry or part of it): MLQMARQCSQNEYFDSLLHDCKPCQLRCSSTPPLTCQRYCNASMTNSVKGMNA
- assaySummary: SPR, IgG on chip, cyBCMA analyte, 37C
assayMetric: kon (M⁻¹ s⁻¹)
Number only, in M⁻¹ s⁻¹; omit the unit.

[[record]]
binder = "L3.PY/L1.PH/H2.QR (antibody, V domains shown, IgG) VH: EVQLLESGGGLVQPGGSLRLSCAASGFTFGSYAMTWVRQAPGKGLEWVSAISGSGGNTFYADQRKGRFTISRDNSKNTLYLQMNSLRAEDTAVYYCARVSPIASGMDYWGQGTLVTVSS VL: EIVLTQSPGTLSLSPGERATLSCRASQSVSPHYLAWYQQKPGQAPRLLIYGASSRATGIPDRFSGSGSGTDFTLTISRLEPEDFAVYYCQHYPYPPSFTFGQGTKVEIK"
units = "M⁻¹ s⁻¹"
observedvalue = "2.42e+06"

[[record]]
binder = "L3.PY/L1.PH/H2.HA (antibody, V domains shown, IgG) VH: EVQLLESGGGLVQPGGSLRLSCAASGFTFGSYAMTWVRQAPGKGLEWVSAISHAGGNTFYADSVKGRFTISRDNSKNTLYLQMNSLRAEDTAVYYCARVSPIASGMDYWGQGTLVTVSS VL: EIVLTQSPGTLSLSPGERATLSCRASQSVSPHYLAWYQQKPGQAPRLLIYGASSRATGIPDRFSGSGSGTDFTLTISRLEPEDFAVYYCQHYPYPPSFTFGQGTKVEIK"
units = "M⁻¹ s⁻¹"
observedvalue = "1.61e+06"


Then there is this binder:
Qu. Name the reported kon value associated with the binder L3.PY/L1.FF/H3.AQ (antibody, V domains shown, IgG) VH: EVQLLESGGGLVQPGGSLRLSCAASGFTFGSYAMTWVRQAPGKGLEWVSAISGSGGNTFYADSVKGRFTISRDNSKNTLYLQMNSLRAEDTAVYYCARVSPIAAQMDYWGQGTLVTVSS VL: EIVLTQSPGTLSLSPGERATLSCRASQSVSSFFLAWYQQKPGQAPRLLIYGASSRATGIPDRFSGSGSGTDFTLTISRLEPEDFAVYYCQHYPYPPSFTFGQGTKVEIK
Ans. 2.18e+06
